Data origin: ChEMBL document CHEMBL1201862

system: A549; experiment: NCI tumour cell line growth inhibition, 48 h
The source made the active and inactive calls. Rule as the data show it: active = GI50 up to about 1.1 µM and inactive = higher.
Your answer must be one of the following: yes (1) for active, no (0) for inactive

// known answers, use as guide
COc1cc([C@@H]2c3cc4c(cc3[C@@H](NC(=O)c3cccc([N+](=O)[O-])c3)C3COC(=O)[C@@H]32)OCO4)cc(OC)c1O (some centres not stated): yes (1)
CC(C)C(C/C=C1/CC(CO)(COC(=O)CC(C(C)C)C(C)C)OC1=O)C(C)C (configuration not stated): yes (1)
C=C1CCC(CC[C@@H]2CC[C@]3(OC2)O[C@@]2(O)CC[C@]3(C)OC2(C)C)C(C)(C)[C@H]1C/C=C1/C(=O)OC[C@@H]1O (some centres not stated): no (0)
COCC1N=C(c2cc(OC)c(OC)c(OC)c2-c2cc3c(cc2[C@@H](C)O)OCO3)O[C@H]1c1ccccc1 (some centres not stated): no (0)

Task: State the result this test recorded for CC1=CC(=O)[C@@H](O)[C@]2(C)[C@H]3[C@@]4(O)OC[C@@]35[C@@H](C[C@@H]12)OC(=O)C(OC(=O)CC1=CCCC1)[C@H]5[C@@H](C)[C@H]4O (some centres not stated) .
Result: yes (1)

Task: Record lookup: outcome of this test for CC1=N/C(=C\c2c(O)ccc3ccccc23)C(=O)O1 ?
Result: no (0)

Task: So what was the verdict on Nc1c(S(=O)(=O)c2ccccc2)c2nc3ccccc3nc2n2c1nc1ccccc12 in this test?
Result: no (0)

Task: State the result this test recorded for COC(=O)[C@H]1[C@H](C(=O)OC)[C@@H](C)c2c(ccc3c2[nH]c2ccccc23)[C@@H]1C .
Result: no (0)

Task: Assay result, entry COc1ccc(CC2NCCc3cc(OC)c(OC)cc32)cc1Br (configuration not stated) — outcome?
Result: no (0)

Task: Query: recorded result category for CC(=O)OC12c3ccccc3C(c3ccccc31)C1C(=O)N(c3ccccn3)C(=O)C12 (configuration not stated) in this test
Result: no (0)

Task: Outcome? CCOC(=O)N1CCC2C(=C(C)C(C)C3=C2C(=O)c2ccccc2C3=O)C1 (configuration not stated)
Result: no (0)

Task: Test call for this compound, please: c1ccc(-c2sc(-c3ccccc3)c3c2C2CCC3C2)cc1
Result: no (0)

Task: # fetch the recorded call for N=C(N)N/N=C/c1c(-c2ccc(Cl)cc2)nc2sccn12 here
Result: no (0)

Task: I would be grateful if you could indicate the recorded call for CC(=O)NNc1nc(C)c(C(/C=C/c2ccc(Cl)cc2)=N\N=C(N)N)s1 .
Result: no (0)

Task: What call does the record list for COC(=O)C(C(=O)C(=O)Nc1cccc(O)c1)c1nc2ccc(Cl)cc2nc1O (configuration not stated) ?
Result: no (0)

Task: Can you look up the reported call for CN(C)C(=S)OC(Cn1cncn1)c1ccc(Cl)cc1Cl (configuration not stated) for me?
Result: no (0)

Task: Entry C[C@]12CC[C@@H]3c4cc(I)c(O)cc4CC[C@H]3[C@@H]1CC[C@@H]2O : call = ?
Result: no (0)

Task: Hi, sorry to bother you, what did the test record for COC(=O)c1cccn1C(=O)n1cccc1 ?
Result: no (0)

Task: Hey, what did the test say about COC(=O)C1CCC2(C)[C@H](CCC3O[C@]32C)[C@@]1(C)CC(=O)c1ccoc1 (some centres not stated) ?
Result: no (0)

Task: Answer briefly: the call reported for CC(=O)OCC1OC(n2c(=S)n(-c3ccccc3)c(=O)c3cc(Br)ccc32)C(OC(C)=O)C(OC(C)=O)C1OC(C)=O (configuration not stated) in this assay.
Result: no (0)

Task: # lookup: test call for O=S(=O)(O)C1=C2Sc3ccccc3N=C2c2ccccc2C1
Result: no (0)
